Assayed System: T1, Hu/NoV/GII.4/MD2004/2004/U.S. VLP (human norovirus GII.4)
T1 construct: mature; baculovirus VLP; VP2 may be present; also called MD2004 VLP
Protocol Text: blockade ELISA: VLP binding to PGM type III
Known EC50 of a selection of binders
Respond with the bare value in µg/mL.

Binder: VHH 19 (VHH, MD2004 library, subtractive biopanning; His6 tag; also called 19.1; clone 19) VHH: QVKLQQSGGGLVQPGGSLRLSCAASGFTFRNYAMSWVRQAPGKGLEWVSAIAAGGAVTKYADSVKGRFTISRDNARDTLYLQMNSLKPEDTAVYYCAKPRDFWYSPEFDFRGQGTQVTVSS
EC50 [µg/mL]: 0.583

query: # input binder: VHH 3.2 (VHH, llama VHH, MD2004 library; pHEN6, C-terminal His6 tag; also called clone 3.2) VHH: QVQLQESGGGLVQPGGSLRLSCAASESTPSINTMGWYRQAPGKERELVATITSGGMTNYADSVKGRFTISRDNGKNTVYLQMNSLEPGDTAVYYCNLKRRDLQARFGGYWGQGTQVTVSS ; wanted: its EC50
result: 2.3
